# reported viability, T/C; entries follow
System: 885724-159-R-J1-PDC complex spheroid viability;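 further: spheroids exposed to compounds for 7 days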
Assay explanation: Anticancer human tumor 885724-159-R-J1-PDC patient-derived pancreatic adenocarcinoma cell line growth inhibition [POLQ]
Conditions: second compound 3.16 µM; first compound 10 µM; hits give low values

# count of solved cases: 2
Compound: C#Cc1c(F)ccc2cc(O)cc(-c3ncc4c(N5CC6CCC(C5)N6)nc(OCC56CCCN5CC(F)C6)nc4c3F)c12 (stereo not drawn) + COC1C(OC(N)=O)C(O)C(Oc2ccc3c(O)c(NC(=O)c4ccc(O)c(CC=C(C)C)c4)c(=O)oc3c2C)OC1(C)C
Assay readout: viability, T/C
Meas value: 22.3%

Compound: CNCc1ccc(-c2[nH]c3cc(F)cc4c3c2CCNC4=O)cc1 + COC1C(OC(N)=O)C(O)C(Oc2ccc3c(O)c(NC(=O)c4ccc(O)c(CC=C(C)C)c4)c(=O)oc3c2C)OC1(C)C
Assay readout: viability, T/C
Meas value: 82.5%

Consider the record given below.
### Prompt # query: viability, T/C | item COc1cc(C2c3cc4c(cc3C(OC3OC5COC(C)OC5C(O)C3O)C3COC(=O)C23)OCO4)cc(OC)c1O (stereo not drawn) + Nc1ccc(C#CCN(C(=O)Cc2ncc(C(F)(F)F)cc2C(F)(F)F)c2ccc(F)cc2)nn1 | system: 885724-159-R-J1-PDC complex spheroid viability;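 further: spheroids exposed to compounds for 7 days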
### Response 50.9%
